# Assayed target: proteasome (Homo sapiens, UniProt P28074)
# Sequence (P28074 60-263): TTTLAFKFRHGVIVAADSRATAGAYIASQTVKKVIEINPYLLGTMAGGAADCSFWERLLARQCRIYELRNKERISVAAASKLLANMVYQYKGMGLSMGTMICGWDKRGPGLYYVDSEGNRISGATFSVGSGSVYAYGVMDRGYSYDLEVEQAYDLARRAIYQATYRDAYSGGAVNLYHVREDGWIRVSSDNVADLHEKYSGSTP
# Sequence (P28072 35-239 partner): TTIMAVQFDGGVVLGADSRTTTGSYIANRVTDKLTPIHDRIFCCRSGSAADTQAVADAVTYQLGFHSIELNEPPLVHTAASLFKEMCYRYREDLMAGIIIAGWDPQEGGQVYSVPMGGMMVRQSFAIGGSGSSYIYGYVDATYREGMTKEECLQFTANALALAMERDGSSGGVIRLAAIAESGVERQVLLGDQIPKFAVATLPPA
# Sequence (Q99436 44-277 partner): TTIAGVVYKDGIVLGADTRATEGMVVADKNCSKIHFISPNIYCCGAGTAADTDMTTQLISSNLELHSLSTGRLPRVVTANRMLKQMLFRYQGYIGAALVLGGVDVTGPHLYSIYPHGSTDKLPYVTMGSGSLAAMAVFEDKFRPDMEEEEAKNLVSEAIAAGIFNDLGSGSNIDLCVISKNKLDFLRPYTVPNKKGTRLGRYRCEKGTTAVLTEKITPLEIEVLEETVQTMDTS
# Condition info: read-out: IC50 inhibition of decay of β-lactamase activity; Jurkat cells expressing 2XUb-Bla, 30 minutes preincubation, cycloheximide 1 hour
Where a SMILES comes first, the peptide text is derived from it. [ ]: non-standard residue; d: D form. Nle = CCCC[C@H](N)C(=O)O
Quantity measured: IC50 (µM)

Molecule	Quantity measured	Unit name	Measured value
CCCC[C@@H](C=O)NC(=O)[C@H](CC(C)C)NC(=O)[C@H](CC(C)C)NC(C)=O [Ac-LLN] (Ac-Leu-Leu-[Nle]-aldehyde)	IC50	µM	13
